Target: tetrameric LDH-5 (Homo sapiens)
Assay: NanoDSF thermal destabilization of tetrameric LDH-5 by peptide
Assay type: binding
Details: LDH-5 300 nM, n=3; read-out: EC50 of ΔTm (destabilization) of tetrameric LDH-5
recorded-endpoint: EC50 (µM)
Give the quantity in µM, number only.

Which EC50 reading was recorded for the substance Ac-GEMMDLQHGSLFLQTP-NH2 [GP-16] ?
262
